Where these numbers come from: patent US20200223889A1

Overview of recorded EC50 for various compounds
Molecular target: human MC4R (Homo sapiens, UniProt P32245)
Construct: expressed in transfected cells
Sequence (P32245 whole entry): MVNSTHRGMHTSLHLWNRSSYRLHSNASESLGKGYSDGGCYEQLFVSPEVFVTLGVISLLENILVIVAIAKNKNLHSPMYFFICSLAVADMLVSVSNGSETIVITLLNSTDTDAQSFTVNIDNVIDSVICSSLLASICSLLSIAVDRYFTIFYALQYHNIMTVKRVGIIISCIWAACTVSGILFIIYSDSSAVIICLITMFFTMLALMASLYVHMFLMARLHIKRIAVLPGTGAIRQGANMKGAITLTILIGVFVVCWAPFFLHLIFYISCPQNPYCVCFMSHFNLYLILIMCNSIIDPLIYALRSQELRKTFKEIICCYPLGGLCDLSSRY
Assay: Functional cAMP assay (CisBio HTRF) in BHK cells expressing human MC4R
Assay type: cell-based
Settings: BHK cells expressing human MC4R; '>' = highest dose used with no response; read-out: MC4R cAMP EC50
Positions of bridges follow the written chain, without caps; N, C: chain ends. Non-standard residues stand in square brackets, D forms with d. Residues, ends and D or L forms follow the SMILES beside them. Hyp = O=C(O)[C@@H]1C[C@@H](O)CN1; Agp = N=C(N)NC[C@H](N)C(=O)O; Aib = CC(C)(N)C(=O)O
MEASURED ENDPOINT: EC50 (nM)

>>> obs_value("CC1(C)NC(=O)[C@@H]2CSSC[C@H](NC(=O)[C@H](Cc3c[nH]c4ccccc34)NC(=O)[C@H](CNC(=N)N)NC(=O)[C@@H](Cc3ccccc3)NC(=O)[C@H](Cc3c[nH]cn3)NC1=O)C(=O)NC(C)(C)C(=O)N[C@@H](Cc1c[nH]cn1)C(=O)N[C@H](Cc1ccccc1)C(=O)N[C@@H](CNC(=N)N)C(=O)N[C@@H](Cc1c[nH]c3ccccc13)C(=O)N2 [Chem. 43] (cyclo([Agp]WC[Aib]H[dF][Agp]WC[Aib]H[dF]); disulfide 3-9)")
0.44
>>> obs_value("CC1(C)NC(=O)[C@@H]2CSSC[C@H](NC(=O)[C@H](Cc3c[nH]c4ccccc34)NC(=O)[C@H](CCCNC(=N)N)NC(=O)[C@@H](Cc3ccccc3)NC(=O)[C@@H]3C[C@@H](O)CN3C1=O)C(=O)NC(C)(C)C(=O)N1C[C@H](O)C[C@H]1C(=O)N[C@H](Cc1ccccc1)C(=O)N[C@@H](CCCNC(=N)N)C(=O)N[C@@H](Cc1c[nH]c3ccccc13)C(=O)N2 [Chem. 38] (cyclo([Aib][Hyp][dF]RWC[Aib][Hyp][dF]RWC); disulfide 6-12)")
4.22
>>> obs_value("C[C@@H]1NC(=O)[C@@H]2CSSC[C@H](NC(=O)[C@H](Cc3c[nH]c4ccccc34)NC(=O)[C@H](Cc3c[nH]cn3)NC(=O)[C@@H](Cc3ccccc3)NC(=O)[C@H](Cc3c[nH]cn3)NC1=O)C(=O)N[C@@H](C)C(=O)N[C@@H](Cc1c[nH]cn1)C(=O)N[C@H](Cc1ccccc1)C(=O)N[C@@H](Cc1c[nH]cn1)C(=O)N[C@@H](Cc1c[nH]c3ccccc13)C(=O)N2 [Chem. 24] (cyclo(AH[dF]HWCAH[dF]HWC); disulfide 6-12)")
0.49

====

Target: human MC4R (Homo sapiens)
Construct: expressed in transfected cells
Assay: 125NDP-α-MSH competitive binding to membranes of BHK cells expressing human MC4 receptor (filtration assay)
Conditions: human MC4R, BHK cell membranes, 125NDP-α-MSH radioligand; read-out: MC4R binding Ki
pKi: −log10 of the molar value. Positions of bridges follow the written chain, without caps; N, C: chain ends. Non-standard residues stand in square brackets, D forms with d. Residues, ends and D or L forms follow the SMILES beside them. Cit = NC(=O)NCCC[C@H](N)C(=O)O; GABA = NCCCC(=O)O
MEASURED ENDPOINT: pKi

>>> obs_value("N=C(N)NCCC[C@@H]1NC(=O)[C@@H](Cc2ccccc2)NC(=O)[C@H](Cc2c[nH]cn2)NC(=O)CCCNC(=O)[C@@H]2CSSC[C@H](NC(=O)[C@H](Cc3c[nH]c4ccccc34)NC1=O)C(=O)NCCCC(=O)N[C@@H](Cc1c[nH]cn1)C(=O)N[C@H](Cc1ccccc1)C(=O)N[C@@H](CCCNC(=N)N)C(=O)N[C@@H](Cc1c[nH]c3ccccc13)C(=O)N2 [Chem. 35] (cyclo(C[GABA]H[dF]RWC[GABA]H[dF]RW); disulfide 1-7)")
10.52
>>> obs_value("C[C@@H]1NC(=O)[C@@H]2CSSC(C)(C)[C@H](NC(=O)[C@H](Cc3c[nH]c4ccccc34)NC(=O)[C@H](CCCNC(=N)N)NC(=O)[C@@H](Cc3ccccc3)NC(=O)[C@H](Cc3c[nH]cn3)NC1=O)C(=O)N[C@@H](C)C(=O)N[C@@H](Cc1c[nH]cn1)C(=O)N[C@H](Cc1ccccc1)C(=O)N[C@@H](CCCNC(=N)N)C(=O)N[C@@H](Cc1c[nH]c3ccccc13)C(=O)N2 [Chem. 63]")
10.10
>>> obs_value("C[C@@H]1NC(=O)[C@@H]2CSSC[C@H](NC(=O)[C@H](Cc3c[nH]c4ccccc34)NC(=O)[C@H](Cc3c[nH]cn3)NC(=O)[C@@H](Cc3ccccc3)NC(=O)[C@H](Cc3c[nH]cn3)NC1=O)C(=O)N[C@@H](C)C(=O)N[C@@H](CCCCN)C(=O)N[C@@H](CCCCN)C(=O)N[C@@H](CCCCN)C(=O)N[C@@H](Cc1c[nH]c3ccccc13)C(=O)N2 [Chem. 60] (cyclo(AH[dF]HWCAKKKWC); disulfide 6-12)")
10.00
>>> obs_value("C[C@@H]1NC(=O)[C@@H]2CSSC[C@H](NC(=O)[C@H](Cc3c[nH]c4ccccc34)NC(=O)[C@H](CCC(N)=O)NC(=O)[C@@H](Cc3ccccc3)NC(=O)[C@H](Cc3c[nH]cn3)NC1=O)C(=O)N[C@@H](C)C(=O)N[C@@H](CCCCN)C(=O)N[C@H](CCCCN)C(=O)N[C@@H](CCCCN)C(=O)N[C@@H](Cc1c[nH]c3ccccc13)C(=O)N2 [Chem. 57] (cyclo(AH[dF]QWCAK[dK]KWC); disulfide 6-12)")
9.68
>>> obs_value("C[C@@H]1NC(=O)[C@@H]2CSSC[C@H](NC(=O)[C@H](CCCNC(=N)N)NC(=O)[C@H](CCCCN)NC(=O)[C@H](CCCCN)NC(=O)[C@H](CCCCN)NC1=O)C(=O)N1CCC[C@H]1C(=O)N[C@@H](Cc1c[nH]cn1)C(=O)N[C@H](Cc1ccccc1)C(=O)N[C@@H](CCCNC(N)=O)C(=O)N[C@@H](Cc1c[nH]c3ccccc13)C(=O)N2 [Chem. 72] (cyclo(AKKKRCPH[dF][Cit]WC); disulfide 6-12)")
10.52
